This section presents compounds with their documented pIC50 values.
# target_or_test_system: Sigma receptor (Cavia porcellus)
# experiment_description: Binding assay for the sigma receptor sites is performed by utilizing [3H]N,N-di-o-tolylguanidine ([3H]DTG) and guinea pig brain membrane suspensions
pIC50: −log10 of the molar value.
quantity_measured: pIC50

                                    compound  value
 0  CCc1cccc(N(C)C(N)=Nc2cc(Br)cc([S+](C)[O-])c2Br)c1 (centres undefined)   5.71
 1  CCc1cccc(N(C)C(N)=Nc2cc(C(F)(F)F)cc(CC)c2Br)c1   6.69
 2       CCc1cc(CC)cc(N=C(N)Nc2cccc(CC)c2)c1   8.10
 3   CCc1cccc(N(C)C(=N)N(C)c2cc(Br)ccc2Br)c1   6.42
 4       CCc1cccc(NC(N)=Nc2cc(Cl)cc(Cl)c2)c1   7.15
 5              CCc1cccc(NC(N)=Nc2ccccc2C)c1   7.96
 6  CCc1cccc(N(C)C(N)=Nc2cc(CC)cc(SC)c2Cl)c1   6.75
 7  CCc1cccc(N(C)C(N)=Nc2cc(CC)cc(CC)c2Cl)c1   6.95
 8          CCc1cccc(N(C)C(N)=Nc2ccccc2Br)c1   6.90
 9          CCc1cccc(NC(N)=Nc2ccccc2C(C)C)c1   7.68
10  CCc1cccc(N(C)C(N)=Nc2cc(C(F)(F)F)cc(CC)c2Cl)c1   6.94
11      CCc1cccc(N(C)C(N)=Nc2cc(Cl)ccc2Cl)c1   7.54
12  CCc1cccc(N(C)C(N)=Nc2cc(CC)cc(OC(F)(F)F)c2Br)c1   6.58
13           CCc1cccc(NC(N)=Nc2cccc(Cl)c2)c1   7.57
